All figures here come from patent US20190127480A1.

biological target: human CD3 expressed on cells (Jurkat cells; human T-cells of PBMC) (human, UniProt P09693 23-182; P20963 22-164); experiment: cell-based or functional assay
Sequence (chain, as listed by the source, chain 1 of 4): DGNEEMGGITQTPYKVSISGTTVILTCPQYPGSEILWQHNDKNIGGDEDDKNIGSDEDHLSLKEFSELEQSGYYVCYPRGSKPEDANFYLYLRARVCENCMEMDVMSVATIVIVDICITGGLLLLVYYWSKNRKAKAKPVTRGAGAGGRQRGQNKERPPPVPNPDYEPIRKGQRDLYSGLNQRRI
Sequence (chain, as listed by the source, chain 2 of 4): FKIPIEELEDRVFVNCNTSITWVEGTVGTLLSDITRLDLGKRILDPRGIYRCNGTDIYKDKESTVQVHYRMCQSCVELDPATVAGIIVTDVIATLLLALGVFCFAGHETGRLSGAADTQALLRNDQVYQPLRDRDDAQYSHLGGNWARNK
Sequence (P09693 23-182, chain 3 of 4): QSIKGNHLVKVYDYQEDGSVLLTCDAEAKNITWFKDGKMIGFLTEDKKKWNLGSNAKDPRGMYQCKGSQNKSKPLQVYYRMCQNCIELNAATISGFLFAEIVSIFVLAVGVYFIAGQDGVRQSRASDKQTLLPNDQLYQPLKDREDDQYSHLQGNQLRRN
Sequence (P20963 22-164, chain 4 of 4): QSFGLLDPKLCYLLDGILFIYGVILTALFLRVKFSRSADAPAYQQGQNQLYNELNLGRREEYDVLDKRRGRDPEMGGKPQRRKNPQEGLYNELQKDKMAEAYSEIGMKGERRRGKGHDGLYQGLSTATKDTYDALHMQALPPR
outcome.measure: U937 Cytotoxicity Human T-cells (pM)

>>> observed_measurement("H1H5798B (antibody, human IgG1, V domains shown, H1H: human IgG1 Fc) VH: QVQLVQSGGGLVKPGGSLRLSCAASGFTFSSYDMSWVRQAPGKGLEWVSYISSSGNTIHYADSVKGRFTISRDNSKNSLYLQMNSLRAEDTAVYYCAKAGPATVTRRYYYYYGLDVWGQGTTVTVSS VL: DIVMTQSPSSLSASVRDRVTITCRASQRISSYLNWFQQKPGKAPKVLIYTASSLQNGVPSRFSGSGSGTDFTLTISSLQPEDFATYYCQQSYRTPLTFGGGTKVEIKR")
181
>>> observed_measurement("H1H5793B (antibody, human IgG1, V domains shown, H1H: human IgG1 Fc) VH: QVQLVQSGTEVKKPGASMKVSCKASGYTFTGYYIHWVRQAPGQGLEWMGWINPNSDVTKYAQKFQGRVTLTRDTSISAAYIDLSRLRSDDTAIYYCARMGDGAVFDYWGQGTLVTVSS VL: DIQLTQSPSSLSASVGDRVTITCRASQRISSYLNWYQQKPGKAPKVLISVASSLQSGVPSRFSGSGFGTDFTLTISSLQPEDSASYYCQQSYNTPLTFGGGTKLEIKR")
88.5
>>> observed_measurement("H1H5752P (antibody, human IgG1, V domains shown, H1H: human IgG1 Fc) VH: QVQLVESGGGVVQPGRSLRPSCAASGFSFRDYGMHWVRQAPGKGLEWMAHIWYNGKNKYYADSVKGRFTISRDNSKNTLYLQMNSLRPEDTAVYYCARDGVSARGTPFDYWGQGTLVTVSS VL: ETTLTQSPAFMSAAPGDKVSISCIASQYIDDDVNWYQQKPGETAIFIIQEASTLVPGISPRFSGSGYGTHFTLTINNIDSEDAAFYFCLQHDNFPYTFGQGTKLEIK")
18.5
